Value source: ChEMBL document CHEMBL1145498

# system.name: Mitogen-activated protein kinase 11 (Homo sapiens, UniProt Q15759)
# Sequence (Q15759 whole entry): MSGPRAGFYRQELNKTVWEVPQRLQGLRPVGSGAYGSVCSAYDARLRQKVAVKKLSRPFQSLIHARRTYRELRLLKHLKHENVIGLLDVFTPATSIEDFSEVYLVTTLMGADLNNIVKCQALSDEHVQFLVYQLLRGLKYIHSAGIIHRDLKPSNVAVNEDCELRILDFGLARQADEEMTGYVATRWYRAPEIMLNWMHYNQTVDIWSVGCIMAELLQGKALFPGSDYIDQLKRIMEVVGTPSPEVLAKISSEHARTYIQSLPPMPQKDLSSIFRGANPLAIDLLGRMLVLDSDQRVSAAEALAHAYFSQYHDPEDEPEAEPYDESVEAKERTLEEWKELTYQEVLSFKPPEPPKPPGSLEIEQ
# procedure.summary: Inhibition of SAPK2b/p38beta
readout.kind: pIC50
Friendly reminder that pIC50 comes from taking -log10 of the concentration in mol/L.

### Prompt Given the entry `Cc1ccc(NC(=O)c2cccc(N(C)C)c2)cc1NC(=O)c1ccc(O)cc1` , report its measured pIC50.
### Response 5.70

----------
Quick record: ΔTm, Serine/threonine-protein kinase 10 (Homo sapiens) (UniProt O94804).
Dear colleague, please send the value followed by its unit.

In the examples that follow, each entry is paired with its recorded ΔTm.
{"molecule": "COc1ccc(S(=O)(=O)N(CCO)c2ccccc2CN(C)C/C=C/c2ccc(Cl)cc2)cc1", "readout.kind": "ΔTm", "experimental.value": "0.2 °C"}
{"molecule": "C[C@@H](N)[C@H]1CC[C@H](C(=O)Nc2ccncc2)CC1", "readout.kind": "ΔTm", "experimental.value": "1.2 °C"}
{"molecule": "CCOC(=O)c1cnc2oc3ccc(O)cc3c2c1-c1ccccc1", "readout.kind": "ΔTm", "experimental.value": "2.9 °C"}
{"molecule": "CN(c1cccnc1)c1cc2c(Nc3ccc(F)c(Cl)c3)c(C#N)cnc2cn1", "readout.kind": "ΔTm", "experimental.value": "2.8 °C"}

### Prompt Serine/threonine-protein kinase 10 (Homo sapiens) (UniProt O94804) / ΔTm / `C=CNC#N` : value?
### Response -0.3 °C

### Prompt Serine/threonine-protein kinase 10 (Homo sapiens) (UniProt O94804) / ΔTm / `CC(C)n1cnc2/c(=N/c3cccc(Cl)c3)nc(NCCO)[nH]c21` : value?
### Response 2 °C

### Prompt Serine/threonine-protein kinase 10 (Homo sapiens) (UniProt O94804) / ΔTm / `CCCCc1c(-c2ccc(O)cc2)[nH]c2nccnc12` : value?
### Response 5 °C

### Prompt Serine/threonine-protein kinase 10 (Homo sapiens) (UniProt O94804) / ΔTm / `N#C/C(=C1/Nc2ccccc2S1)c1ccnc(NCCc2cccnc2)n1` : value?
### Response 1.4 °C

### Prompt Serine/threonine-protein kinase 10 (Homo sapiens) (UniProt O94804) / ΔTm / `O=C1Nc2cc(Br)ccc2/C1=C1/Nc2ccccc2/C1=N\O` : value?
### Response 7.7 °C

### Prompt Serine/threonine-protein kinase 10 (Homo sapiens) (UniProt O94804) / ΔTm / `N#C/C(=C\c1ccc(O)c(O)c1)C(=O)Nc1ccccc1` : value?
### Response 1.2 °C

### Prompt Serine/threonine-protein kinase 10 (Homo sapiens) (UniProt O94804) / ΔTm / COc1ccc2c(c[n+](C)c3c4cc5c(cc4ccc23)OCO5)c1OC [CHELERYTHRINE CHLORIDE] : value?
### Response -1.1 °C

### Prompt Serine/threonine-protein kinase 10 (Homo sapiens) (UniProt O94804) / ΔTm / `NS(=O)(=O)c1ccc(Nc2nc(OCC3CCCCC3)c3nc[nH]c3n2)cc1` : value?
### Response 4.1 °C

### Prompt Serine/threonine-protein kinase 10 (Homo sapiens) (UniProt O94804) / ΔTm / `Ic1cccc(CSc2nnc(-c3ccncc3)o2)c1` : value?
### Response 1.4 °C

### Prompt Serine/threonine-protein kinase 10 (Homo sapiens) (UniProt O94804) / ΔTm / `OC[C@H]1O[C@@H](n2cnc3cc(Cl)c(Cl)cc32)[C@H](O)[C@@H]1O` : value?
### Response -0.7 °C

### Prompt Serine/threonine-protein kinase 10 (Homo sapiens) (UniProt O94804) / ΔTm / `CCCNC(=O)Nc1ccc(Oc2ncnc3cc(OC)c(OC)cc23)cc1Cl` : value?
### Response 0.4 °C

### Prompt Serine/threonine-protein kinase 10 (Homo sapiens) (UniProt O94804) / ΔTm / `Nc1cccc(-c2cc3c(Oc4cccc(O)c4)ncnc3[nH]2)c1` : value?
### Response 5.9 °C
